Exercise: state measured kon for each of the binders provided.
target: recombinant murine VEGF164 (mouse) (UniProt Q00731); experiment: Biacore SPR, VEGF immobilized, pH 5
Dear colleague, please send the value followed by its unit.

Asked: Consider the binder shown here: 578-min (scFv, also called EP578 min; Protein Nr; 820) scFv: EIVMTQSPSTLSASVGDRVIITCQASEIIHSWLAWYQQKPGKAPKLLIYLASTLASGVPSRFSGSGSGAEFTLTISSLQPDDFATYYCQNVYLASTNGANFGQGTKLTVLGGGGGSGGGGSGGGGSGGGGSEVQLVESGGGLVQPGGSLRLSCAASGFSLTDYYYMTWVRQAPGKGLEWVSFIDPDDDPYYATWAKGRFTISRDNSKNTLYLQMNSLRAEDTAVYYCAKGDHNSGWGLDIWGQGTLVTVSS What is its recorded kon?
Given back: 1.4e+06 M⁻¹ s⁻¹

Asked: Consider the binder shown here: 511-max (scFv, also called ESBA802) scFv: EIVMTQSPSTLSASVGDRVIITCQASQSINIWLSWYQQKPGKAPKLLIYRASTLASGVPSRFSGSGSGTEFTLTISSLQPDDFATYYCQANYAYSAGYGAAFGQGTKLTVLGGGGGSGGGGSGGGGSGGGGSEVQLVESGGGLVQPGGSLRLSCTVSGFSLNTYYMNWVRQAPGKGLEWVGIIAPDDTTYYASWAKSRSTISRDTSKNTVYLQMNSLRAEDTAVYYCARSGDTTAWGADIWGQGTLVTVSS What is its recorded kon?
Given back: 753000 M⁻¹ s⁻¹

Asked: Consider the binder shown here: 578min_max T84N_V89L (scFv, the VH entry already carries T84N and V89L; tied by name; also called Protein No. 1008) scFv: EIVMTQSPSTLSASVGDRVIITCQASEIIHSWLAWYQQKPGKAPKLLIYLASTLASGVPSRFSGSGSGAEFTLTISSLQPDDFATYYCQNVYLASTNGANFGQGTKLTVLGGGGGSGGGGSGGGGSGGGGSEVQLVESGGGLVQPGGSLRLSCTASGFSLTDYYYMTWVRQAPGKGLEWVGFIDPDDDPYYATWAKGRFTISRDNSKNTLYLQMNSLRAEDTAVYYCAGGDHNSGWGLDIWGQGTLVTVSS What is its recorded kon?
Given back: 1.23e+06 M⁻¹ s⁻¹

Asked: Consider the binder shown here: 567-max (scFv, VL and VH tied by name; also called Protein Nr; 874) scFv: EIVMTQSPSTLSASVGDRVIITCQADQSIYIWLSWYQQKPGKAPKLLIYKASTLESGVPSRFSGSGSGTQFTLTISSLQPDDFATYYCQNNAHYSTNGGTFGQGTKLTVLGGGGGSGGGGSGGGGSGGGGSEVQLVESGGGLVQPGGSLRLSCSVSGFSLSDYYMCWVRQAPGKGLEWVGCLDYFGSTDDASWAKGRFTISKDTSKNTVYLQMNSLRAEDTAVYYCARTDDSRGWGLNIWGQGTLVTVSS What is its recorded kon?
Given back: 1.64e+06 M⁻¹ s⁻¹

Reference source: patent US20150274820A1
